Listed variants paired with reported self-cleavage
B1: LINE1-full (parent)
chain: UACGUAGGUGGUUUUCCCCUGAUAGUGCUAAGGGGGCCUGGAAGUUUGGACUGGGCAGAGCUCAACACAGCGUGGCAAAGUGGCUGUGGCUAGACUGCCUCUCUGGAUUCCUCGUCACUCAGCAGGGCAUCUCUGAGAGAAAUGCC

# Variants of: B1
# protocol notes: self-cleavage, relative activity (ratio to wild type); higher = more cleavage; in vitro, sequencing; the parent is a self-cleaving ribozyme
// print number alone

Below, each entry is followed by its recorded self-cleavage result.
UACGUAGGUGGUUUUCCCCUGAUAGUGCUAAGGGGGCCUGGAAGUUUGGACUGGGCAGAGCUCAACUCAGCGUGGCAAAGUGGCUGUGGCUAGACUGCCUCUCUGGAUUCCUCGUCACUCAGCAGGGCAUCACUGAGAGAAAUGCC :: 0.11
UACGUAGGUGGUUUUCCCCUGAUAGUGCUAAGGGGGCCUGGAAGUUUGGACUGGGCAGAGCUCAACACAGCGUGGCAAAGUGGCCGUGGCUAGACUGCCUCUCCGGAUUCCUCGUCACUCAGCAGGGCAUCUCUGAGAGAAAUGCC :: 0.18
UACGUAGGUGGUUUUCCCCUGAUAGUGCUAAGGGGGCCUGGAAGUUUGGACUGGGCAGAGCUCAACACAGCGUGGCAGAGUGGCUGUGGCUAGACUGCCUCUCUGGAUUCCUCGUCGCUCAGCAGGGCAUCUCUGAGAGAAAUGCC :: 0.89
UACGUAGGUGGUUUUCCCCUGAUAGUGUUAAGGGGGCCUGGAAGUUUGGGCUGGGCAGAGCUCAACACAGCGUGGCAAAGUGGCUGUGGCUAGACUGCCUCUCUGGAUUCCUCGUCACUCAGCAGGGCAUCUCUGAGAGAAAUGCC :: 1.09
UACGUAGGUGGUUUUCCCCUGAUAGUGCUAAGGGGGCCUGGAAGUUUGGACUGGGCAGAGCUCAACACAGCAUGGCAGAGUGGCUGUGGCUAGACUGCCUCUCUGGAUUCCUCGUCACUCAGCAGGGCAUCUCUGAGAGAAAUGCC :: 1.14
UACGUAGGUGGUUUUCCCCUGAUAGUGCUAAGGGGGCCUGGAAGUUUGGACAGGGCAGAGCUCAACACAGCGUGGCAAAGUGGCUGUGGCGAGACUGCCUCUCUGGAUUCCUCGUCACUCAGCAGGGCAUCUCUGAGAGAAAUGCC :: 0.08
UACGUAGGUGGUUUUCCCCUGAUAGUGCUAAGGGGGCCUGGAAGUUUGGACUGGGCAGAGCUCAACACAGCGUGGCAAAGUGGCUGUGGCUAGACUGCAUCUCUGGAUUCCUCGCCACUCAGCAGGGCAUCUCUGAGAGAAAUGCC :: 0.84
UACGUAGGUGGUUUUCCCCUGAUAGUGCUAAAGGGGCCUGGAAGUUUGGACUGGGCAGAGCACAACACAGCGUGGCAAAGUGGCUGUGGCUAGACUGCCUCUCUGGAUUCCUCGUCACUCAGCAGGGCAUCUCUGAGAGAAAUGCC :: 0.08

// sample `UACGCAGGUGGUUUUCCCCUGAUAGUGCUAAGGGGGCCUGGAAGUUUGGACUGGGCAGAGCUCAACACAGCGUGGCAAAGUGGCUGUGGCUAGACUGCCUCUCUGGACUCCUCGUCACUCAGCAGGGCAUCUCUGAGAGAAAUGCC` , its self-cleavage was 1.57

# variant `UACGUAGGUGGUUUUCCCCUGACAGUGCUAAGGGGGCCUGGAAGUUUGGACUGGGCAGAGCUCAACACAGCGUGGCAAAGUGGCCGUGGCUAGACUGCCUCUCUGGAUUCCUCGUCACUCAGCAGGGCAUCUCUGAGAGAAAUGCC` ; its self-cleavage = 0.22

// self-cleavage value for `UACGUAGGUGGUUUUCCCCUGAUAGUGCUAAGGGGGCCUGGAAGUUUGGACUGGGCAGAGCUCAACACAGCGUGGCAAAGUGGCUGUGGCUAGACUGCCUCACUGGAUUCCUCGUCACUCAGCAGGGCAUCUCAGAGAGAAAUGCC` : 1.06

Entry `UACGUAGGUGGUUUUCCCCUGAUAGUGCUAAGGGGGCCUGGAUGUUUGGACUGGGCAGAGUUCAACACAGCGUGGCAAAGUGGCUGUGGCUAGACUGCCUCUCUGGAUUCCUCGUCACUCAGCAGGGCAUCUCUGAGAGAAAUGCC` ; self-cleavage = 0.02

Entry `UACGUAGGAGGUUUUCCCCUGAUAGUGCUAAGGGGGCCUGGAAGUUUGGUCUGGGCAGAGCUCAACACAGCGUGGCAAAGUGGCUGUGGCUAGACUGCCUCUCUGGAUUCCUCGUCACUCAGCAGGGCAUCUCUGAGAGAAAUGCC` , self-cleavage reported as 0.45

# self-cleavage of `UACGUAGGUGGUUUUCCCCUGAUAGCGUUAAGGGGGCCUGGAAGUUUGGACUGGGCAGAGCUCAACACAGCGUGGCAAAGUGGCUGUGGCUAGACUGCCUCUCUGGAUUCCUCGUCACUCAGCAGGGCAUCUCUGAGAGAAAUGCC` = 1.15

// recorded self-cleavage for `UACGUAGGUGGUUUCCCCCUGAUAGUGCUAAGGGGGCCUGGAAGUUUGGACUGGGCAAAGCUCAACACAGCGUGGCAAAGUGGCUGUGGCUAGACUGCCUCUCUGGAUUCCUCGUCACUCAGCAGGGCAUCUCUGAGAGAAAUGCC` : 0.11

Record summary for `UACGUAGGUGGUUUUCCCCUGAUAGUGCAAAGGGGGCCUGGAAGUUCGGACUGGGCAGAGCUCAACACAGCGUGGCAAAGUGGCUGUGGCUAGACUGCCUCUCUGGAUUCCUCGUCACUCAGCAGGGCAUCUCUGAGAGAAAUGCC` : reported self-cleavage = 0

Per the records, this variant ( `UACGUAGGUGGUUUUCCCCUGAUAGUGCUAAGGGGGCCUGGAAGUUUGGACUGGGCAGAGCUCAACACAGCGUGGCAAAGCGGCUGUGGCUAGACUGCCUCUCUGGAUUCCUCGUCACUCAGCUGGGCAUCUCUGAGAGAAAUGCC` ) has self-cleavage equal to 0.74

Looking up `UACGUAGGUGGUUUUCCCCUGAUAGUGCUAAGGGGGCCUGGAAGUUUGGACUGGGCAGAGCUCAACACAGCGUGGCAAAGUGGCUGUGGCUAGACUGCCUCUUUGGAUCCCUCGUCACUCAGCAGGGCAUCUCUGAGAGAAAUGCC` , I see its self-cleavage listed as 0.53
